PROTOCOL_TEXT: cytotoxicity in HT1080 fibrosarcoma cells, cell-based, fluorescence readout (AID 620);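 note: cells exposed to compound overnight then 4 h with Alamar Blue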
CONDITION_DESCRIPTION: HT1080 viability, at 10 µM
The whole screen tested about 87,000 compounds, of which about 360 (0.41%) were called active. Cut-off read from the data, not from the text of the source: active = cytotoxicity above about 50%; inactive = the rest. Only a selection was taken, and actives are over-represented in it overall.
The reply should be one of these categories: active, inactive

Answered cases to consult:
[[record]]
molecule = "COc1cccc(OC)c1C1=NCC(=O)Nc2c1oc1ccc(Br)cc21"
assigned_class = "active"

[[record]]
molecule = "O=C1CC(N2CCC(n3c(=O)[nH]c4ccccc43)CC2)C(=O)N1c1ccc(F)cc1 (centres undefined)"
assigned_class = "inactive"

[[record]]
molecule = "CC(=O)Nc1ccc(S(=O)(=O)NC(CC(=O)N2CCC3(CC2)OCCO3)C(C)C)cc1 (centres undefined)"
assigned_class = "inactive"

[[record]]
molecule = "CCOC(=O)C1C(=O)NC23CCCC2C1c1ccccc1O3 (centres undefined)"
assigned_class = "inactive"

[[record]]
molecule = "CCC(=NC1CC1)c1c(O)n(C2CCCCC2)c(=O)[nH]c1=O"
assigned_class = "inactive"


For OC1(CN2CCOCC2)C2CC3CC(C2)CC1C3 (centres undefined) , what call appears in the results of this test?
inactive

For O=c1[nH]c2ccccc2n1C1CCN(CCCC(c2ccc(F)cc2)c2ccc(F)cc2)CC1 , what call appears in the results of this test?
active

For COC(=O)C[C@]1(C(=O)OC)CN(C#N)N(c2ccc(Cl)cc2)C12c1ccccc1-c1ccccc12 , what call appears in the results of this test?
active

For CCCCn1c(=O)c(C(=O)NCc2ccncc2)c(O)c2ccccc21 , what call appears in the results of this test?
inactive

For CC1=CC(=C2C(=O)NC(=S)NC2=O)C=C(C(F)(F)F)N1C , what call appears in the results of this test?
inactive

For Cc1cccc(-n2c(O)c(C=NCCCN3CCOCC3)c(=O)[nH]c2=O)c1C , what call appears in the results of this test?
inactive

For COC(=O)C1CN(C#N)N(c2ccc(Cl)cc2)C12c1ccccc1-c1ccccc12 (centres undefined) , what call appears in the results of this test?
active

For C[C@H]1CCC/C=C/C2C[C@H](O)CC2[C@H](O)/C=C/C(=O)O1 (some centres undefined) , what call appears in the results of this test?
active
